system-under-test: T1, human SIRPγ-His monomer protein (human, UniProt Q9P1W8 29-360)
T1 construct: also called hSIRPγ
T1 sequence (Q9P1W8 29-360 limits assumed): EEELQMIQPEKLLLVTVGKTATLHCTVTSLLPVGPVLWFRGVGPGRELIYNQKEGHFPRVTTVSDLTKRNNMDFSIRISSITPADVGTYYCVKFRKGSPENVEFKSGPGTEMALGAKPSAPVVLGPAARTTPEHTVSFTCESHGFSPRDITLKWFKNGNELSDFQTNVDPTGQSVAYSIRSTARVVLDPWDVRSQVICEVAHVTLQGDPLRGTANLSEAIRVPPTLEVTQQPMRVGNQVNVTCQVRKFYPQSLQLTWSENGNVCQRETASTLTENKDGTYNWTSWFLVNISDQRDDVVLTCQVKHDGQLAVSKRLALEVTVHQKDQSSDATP
test-description: BLI Octet, antibody on AHC, global 1:2 model
parameter: pKd
One number for each entry, as −log10 of the molar value.

1. Antibody 90 (antibody, V domains shown) VH: QVQLVQSGAEVKKPGASVKVSCKASGYTFTSYYMHWVRQAPGQGLEWMGWMNPNSDNTGYAQKFQGRVTMTRDTSTSTVYMELSSLRSEDTAVYYCARVGVGYGYYYYGMDVWGQGTTVTVSS VL: DIQMTQSPSSLSASVGDRVTITCRAGQSIGDYLNWYQQKPGKAPKLLIYAASSLQSGVPSRFSGSGSGTDFTLTISSLQPEDFATYYCQQSYSTPWTFGQGTKVEIK    6.76
2. Antibody 83 (antibody, V domains shown) VH: QVQLVQSGAEVKKPGASVKVSCKASGYSFSDYYMHWVRQAPGQGLEWMGWMSPNSGNTGYAQKFQGRVTMTRDTSTSTVYMELSSLRSEDTAVYYCARQREEYGHYYYGMDVWGQGTMVTVSS VL: EIVMTQSPATLSVSPGERATLSCRASQSLGSTYLAWYQQKPGQAPRLLIYGASTRATGIPARFSGSGSGTEFTLTISSLQSEDFAVYYCQQYYSSPPTFGQGTKVEIK    6.76

What does the record list as pKd for Antibody 96 (antibody, V domains shown) VH: QVQLVQSGAEVKKPGASVKVSCKASGYTFTRYDINWVRQAPGQGLEWMGWMNPNSGNTGYAQKLQGRVTMTRDTSTSTVYMELSSLRSEDTAVYYCARERVGYCSSTSCLHPLDYWGQGTLVTVSS VL: DIQMTQSPSSLSASVGDRVTITCRASQGIRNDLGWYQQKPGKAPKLLIYSASNLQSGVPSRFSGSGSGTDFTLTISSLQPEDFATYYCQQSYDVPLTFGGGTKVEIK ? 7.15
